The reader will find pKd measurements below, all made with JAK2 (Homo sapiens, UniProt O60674).
Sequence (O60674 840-1132 limits assumed): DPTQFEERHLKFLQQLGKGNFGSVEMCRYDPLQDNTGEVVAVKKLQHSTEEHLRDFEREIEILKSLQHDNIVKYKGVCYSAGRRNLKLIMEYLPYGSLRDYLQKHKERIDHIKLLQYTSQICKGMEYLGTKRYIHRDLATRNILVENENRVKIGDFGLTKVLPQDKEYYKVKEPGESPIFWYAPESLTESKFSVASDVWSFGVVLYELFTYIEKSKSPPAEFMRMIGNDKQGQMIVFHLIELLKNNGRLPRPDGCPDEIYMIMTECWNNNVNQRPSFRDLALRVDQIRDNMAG
pKd: −log10 of the molar value.

Cc1cc(CNc2[nH]nc(Nc3ccc(-c4ccccc4)cc3)c2C(N)=O)cc(C)c1O [Compound 18]	< 6.00
Cc1cc(CNc2[nH]nc(Nc3ccc(N4CCC(C)CC4)cc3)c2C(N)=O)cc(C)c1O [Compound 63]	< 6.00
Cc1cc(CNc2[nH]nc(Nc3ccc(N)cc3)c2C(N)=O)cc(C)c1O [Compound 47]	< 6.00
Cc1cc(CNc2[nH]nc(Nc3ccc(N4CCOCC4)cn3)c2C(N)=O)cc(C)c1O [Compound 11]	6.00 to 7.00
Cc1cc(CNc2[nH]nc(Nc3cccc(C#N)c3)c2C(N)=O)cc(C)c1O [Compound 43]	< 6.00

Find the measured pKd of NC(=O)c1c(Nc2ccc(N3CCOCC3)cn2)n[nH]c1NCc1ccc(O)cc1 [reference compound] with JAK2 (Homo sapiens, UniProt O60674) as test system.
> 7.30

State pKd on JAK2 (Homo sapiens, UniProt O60674). Entry: COc1cccc(Nc2n[nH]c(NCc3ccc(O)cc3)c2C(N)=O)c1 [reference compound]
> 7.30

Fetch value of pKd on JAK2 (Homo sapiens, UniProt O60674) for CC(C)N1CCN(c2ccc(Nc3n[nH]c(NCc4ccc(O)cc4)c3C(N)=O)cc2)CC1 [reference compound] .
> 7.30

###

Molecular target: JAK3 (Homo sapiens)
Construct: made in house; host or cells: E. coli BL21-derived host (T7 phage) or HEK-293
Sequence (P52333 811-1124 limits assumed): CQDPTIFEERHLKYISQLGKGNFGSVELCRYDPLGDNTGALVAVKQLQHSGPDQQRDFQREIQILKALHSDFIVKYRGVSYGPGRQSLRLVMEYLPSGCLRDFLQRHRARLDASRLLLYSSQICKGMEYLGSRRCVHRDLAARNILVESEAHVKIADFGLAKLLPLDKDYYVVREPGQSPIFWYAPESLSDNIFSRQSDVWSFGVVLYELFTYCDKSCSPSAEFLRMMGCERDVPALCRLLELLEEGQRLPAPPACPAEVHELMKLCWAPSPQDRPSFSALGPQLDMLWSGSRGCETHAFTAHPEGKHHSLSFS
Test: Kinase competition binding assay (Kd, qPCR readout), JAK3
Conditions: Kd class, JAK3; read-out: JAK3 Activity Level
Form field: Kd (one value per entry).

Entry NC(=O)c1c(Nc2ccc(-c3ccccc3)cc2)n[nH]c1NCc1ccc(O)cc1 [reference compound] needs its Kd filled in; supply it.
50 to 100 nM

Answer with reported Kd of Cc1cc(CNc2[nH]nc(Nc3ccc(-c4cccnc4)cc3)c2C(N)=O)cc(C)c1O
> 1000 nM

Determine its reported Kd: Cc1cc(CNc2[nH]nc(Nc3ccc(NC(=O)c4ccc(F)cc4)cc3)c2C(N)=O)cc(C)c1O
> 1000 nM

Annotate the compound COc1ccc(Nc2n[nH]c(NCc3cc(C)c(O)c(C)c3)c2C(N)=O)cc1 [Compound 20] with its measured Kd.
> 1000 nM

Could you please provide reported Kd for Cc1cc(CNc2[nH]nc(Nc3ccc(S(N)(=O)=O)cc3)c2C(N)=O)cc(C)c1O ? Thanks!
> 1000 nM

###

Biological target: kinase domain protein of RC kinase (RCK) (Homo sapiens, UniProt Q56UN5)
Sequence (Q56UN5 1061-1324 limits assumed): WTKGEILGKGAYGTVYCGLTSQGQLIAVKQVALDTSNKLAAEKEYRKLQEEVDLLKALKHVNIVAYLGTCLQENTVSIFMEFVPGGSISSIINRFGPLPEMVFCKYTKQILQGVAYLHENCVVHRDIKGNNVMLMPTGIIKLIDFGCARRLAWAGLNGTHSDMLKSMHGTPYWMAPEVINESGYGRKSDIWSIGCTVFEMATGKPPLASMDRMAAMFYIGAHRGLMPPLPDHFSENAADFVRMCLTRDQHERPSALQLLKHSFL
// values below are reported Kd

Worked set:
Cc1cc(Nc2n[nH]c(NCc3cc(C)c(O)c(C)c3)c2C(N)=O)cnc1N1CCOCC1 [Compound 12]	100 to 1000 nM
COc1ccc(Nc2n[nH]c(NCc3cc(C)c(O)c(C)c3)c2C(N)=O)cc1 [drawing 180, reference compound]	< 50 nM
Cc1cc(CNc2[nH]nc(Nc3ccc(-n4ccnc4)cc3)c2C(N)=O)cc(C)c1O [drawing 179, reference compound]	< 50 nM
Cc1cc(CNc2[nH]nc(Nc3ccc(N4CCC(C(C)C)CC4)cc3)c2C(N)=O)cc(C)c1O [Compound 58]	100 to 1000 nM
NC(=O)c1c(Nc2ccc3[nH]ncc3c2)n[nH]c1NCc1ccc(O)cc1 [reference compound]	50 to 100 nM
NC(=O)c1c(Nc2ccc(F)cc2)n[nH]c1NCc1ccc(O)cc1 [reference compound]	< 50 nM
C[C@@H]1CC(c2ccc(Nc3n[nH]c(NCc4ccc(O)cc4)c3C(N)=O)cn2)C[C@H](C)O1 (stereo partly shown) [reference compound]	< 50 nM
Cc1cc(CNc2[nH]nc(Nc3ccc(CN4CCCC4)cc3)c2C(N)=O)cc(C)c1O [Compound 35]	50 to 100 nM
NC(=O)c1c(Nc2ccc(N3CCSCC3)cc2)n[nH]c1NCc1ccc(O)cc1 [reference compound]	< 50 nM
COc1ccccc1C(=O)Nc1ccc(Nc2n[nH]c(NCc3ccc(O)cc3)c2C(N)=O)cc1 [reference compound]	< 50 nM

GET Kd where system = kinase domain protein of RC kinase (RCK) (Homo sapiens, UniProt Q56UN5) and item = NC(=O)c1c(Nc2ccc(S(N)(=O)=O)cc2)n[nH]c1NCc1ccc(O)cc1 [reference compound]
< 50 nM

Provide the reported Kd (system: kinase domain protein of RC kinase (RCK) (Homo sapiens, UniProt Q56UN5)) for CC(C)C1CCN(c2ccc(Nc3n[nH]c(NCc4ccc(O)cc4)c3C(N)=O)cc2)CC1 [reference compound]
50 to 100 nM

Retrieve Kd on kinase domain protein of RC kinase (RCK) (Homo sapiens, UniProt Q56UN5); query COc1ccccc1C(=O)Nc1ccc(Nc2n[nH]c(NCc3cc(C)c(O)c(C)c3)c2C(N)=O)cc1 [Compound 55]
100 to 1000 nM

State, for kinase domain protein of RC kinase (RCK) (Homo sapiens, UniProt Q56UN5), measured Kd of the compound listed here: CC(=O)Nc1cccc(Nc2n[nH]c(NCc3ccc(O)cc3)c2C(N)=O)c1 [reference compound]
< 50 nM

Give kinase domain protein of RC kinase (RCK) (Homo sapiens, UniProt Q56UN5) Kd for the following compound: CC(C)N1CCN(c2ccc(Nc3n[nH]c(NCc4ccc(O)cc4)c3C(N)=O)cc2Cl)CC1 [reference compound]
< 50 nM

Report its Kd with kinase domain protein of RC kinase (RCK) (Homo sapiens, UniProt Q56UN5) as the test system: NC(=O)c1c(Nc2ccc(-n3cccc3)cc2)n[nH]c1NCc1ccc(O)cc1 [reference compound]
< 50 nM
